Target or system UniProt:P50406; recorded quantity Ki.
Where a name gives a salt, the structure may show the parent alone.

Query block: # query: Ki of entry NCCC(=O)Nc1ccc2c(S(=O)(=O)c3cccc4ccccc34)n[nH]c2c1 [Example 165, hydrochloride]
Result block: 11 to 25 nM

Query block: # query: Ki of entry CN(C)CCc1ccc2[nH]nc(S(=O)(=O)c3ccccc3)c2c1 [Example 176, hydrochloride]
Result block: 11 to 25 nM

Query block: # query: Ki of entry CCN(CC)CCOc1ccc2[nH]nc(S(=O)(=O)c3cccc4ccccc34)c2c1
Result block: 0.01 to 10 nM

Query block: # query: Ki of entry CCNCCOc1cccc2c(S(=O)(=O)c3ccccc3)nn(Cc3cccc(Cl)c3)c12
Result block: 26 to 35 nM

Query block: # query: Ki of entry CNCCCOc1ccc2[nH]nc(S(=O)(=O)c3cccc4ccccc34)c2c1
Result block: 0.01 to 10 nM

Query block: # query: Ki of entry CNCCCc1ccc2[nH]nc(S(=O)(=O)c3cccc4ccccc34)c2c1
Result block: 0.01 to 10 nM

Query block: # query: Ki of entry CCN(CC)CCC(=O)Nc1ccc2c(S(=O)(=O)c3cccc4ccccc34)n[nH]c2c1 [Example 169, hydrochloride]
Result block: > 45 nM

Query block: # query: Ki of entry CN1CCN(Cc2ccc3[nH]nc(S(=O)(=O)c4cccc5ccccc45)c3c2)CC1
Result block: 0.01 to 10 nM

Query block: # query: Ki of entry CC(C)NCCCOc1ccc2[nH]nc(S(=O)(=O)c3cccc4ccccc34)c2c1
Result block: 0.01 to 10 nM

Query block: # query: Ki of entry O=S(=O)(c1cccc2ccccc12)c1n[nH]c2c(OCCN3CCCCC3)cccc12
Result block: 0.01 to 10 nM

Query block: # query: Ki of entry O=S(=O)(c1cccc2ccccc12)c1nn(Cc2ccccc2)c2ccc(OCCN3CCCC3)cc12
Result block: > 45 nM

Query block: # query: Ki of entry CN(C)CCCOc1cccc2c(S(=O)(=O)c3cccc4ccccc34)nn(Cc3cccc(Cl)c3)c12
Result block: > 45 nM

Query block: # query: Ki of entry Cn1nc(S(=O)(=O)c2ccccc2)c2cccc(OCCN3CCCC3)c21
Result block: 26 to 35 nM

Query block: # query: Ki of entry CN(C)CCCc1ccc2[nH]nc(S(=O)(=O)c3ccccc3)c2c1 [Example 177, trifluoroacetate]
Result block: 11 to 25 nM

Query block: # query: Ki of entry CN(C)CCC(=O)Nc1cccc2c(S(=O)(=O)c3cccc4ccccc34)n[nH]c12 [Example 162, hydrochloride]
Result block: 0.01 to 10 nM

Query block: # query: Ki of entry O=S(=O)(c1cccc2ccccc12)c1n[nH]c2ccc(OCCCNC3CC3)cc12
Result block: 0.01 to 10 nM

Query block: # query: Ki of entry CNCCc1cccc2c(S(=O)(=O)c3ccccc3)n[nH]c12 [Example 173, trifluoroacetate]
Result block: 0.01 to 10 nM

Query block: # query: Ki of entry CC(C)NCCOc1ccc2c(c1)c(S(=O)(=O)c1cccc3ccccc13)nn2Cc1ccccc1
Result block: 26 to 35 nM

Query block: # query: Ki of entry COc1cc(OCCN(C)C)c2c(c1)c(S(=O)(=O)c1cccc3ccccc13)nn2Cc1cccc(Cl)c1
Result block: > 45 nM

Query block: # query: Ki of entry O=S(=O)(c1cccc2ccccc12)c1n[nH]c2ccc(CN[C@H]3CCNC3)cc12 [Example 154, Hydrochloride]
Result block: 11 to 25 nM

Query block: # query: Ki of entry CCCN(C)CCCCOc1ccc2[nH]nc(S(=O)(=O)c3cccc4ccccc34)c2c1
Result block: 0.01 to 10 nM

Query block: # query: Ki of entry O=C(CCN1CCCCC1)Nc1ccc2c(S(=O)(=O)c3cccc4ccccc34)n[nH]c2c1 [Example 167, hydrochloride]
Result block: 11 to 25 nM

Query block: # query: Ki of entry O=C(CCN1CCCCC1)Nc1cccc2c(S(=O)(=O)c3cccc4ccccc34)n[nH]c12 [Example 163, hydrochloride]
Result block: 11 to 25 nM

Query block: # query: Ki of entry CN(C)CCC(=O)Nc1ccc2c(S(=O)(=O)c3cccc4ccccc34)n[nH]c2c1 [Example 168, hydrochloride]
Result block: 36 to 45 nM

Query block: # query: Ki of entry CNCCc1ccc2[nH]nc(S(=O)(=O)c3ccccc3)c2c1
Result block: 0.01 to 10 nM

Query block: # query: Ki of entry CCCCNCCOc1cccc2c(S(=O)(=O)c3ccccc3)nn(Cc3cccc(Cl)c3)c12
Result block: > 45 nM

Query block: # query: Ki of entry NCCOc1ccc2c(S(=O)(=O)c3cccc4ccccc34)n[nH]c2c1
Result block: 11 to 25 nM

Query block: # query: Ki of entry CCNCCCCOc1ccc2[nH]nc(S(=O)(=O)c3cccc4ccccc34)c2c1
Result block: 0.01 to 10 nM

Query block: # query: Ki of entry O=S(=O)(c1ccccc1)c1n[nH]c2c(OCCN3CCCCC3)cccc12
Result block: 0.01 to 10 nM

Query block: # query: Ki of entry O=S(=O)(c1cccc2ccccc12)c1nn(Cc2cccc(Cl)c2)c2c(OCCN3CCCC3)cc(F)cc12
Result block: > 45 nM

Query block: # query: Ki of entry NCCOc1cccc2c(S(=O)(=O)c3ccccc3)n[nH]c12
Result block: 0.01 to 10 nM

Query block: # query: Ki of entry CCN(CC)CCCCOc1ccc2[nH]nc(S(=O)(=O)c3cccc4ccccc34)c2c1
Result block: 0.01 to 10 nM

----------
I'd be grateful if you could share measured Ki for these entries.
Structures can show the parent of a compound that is named as a salt.

Query block: Notebook entry, human cloned 5-HT6 receptors (Homo sapiens, UniProt P50406) assay: Ki of CN(C)CCCCOc1ccc2[nH]nc(S(=O)(=O)c3cccc4ccccc34)c2c1 [Example 64] = ?
Result block: 0.01 to 10 nM

Query block: Notebook entry, human cloned 5-HT6 receptors (Homo sapiens, UniProt P50406) assay: Ki of NCCNc1ccc2[nH]nc(S(=O)(=O)c3cccc4ccccc34)c2c1 [Example 157, dihydrochloride] = ?
Result block: 0.01 to 10 nM

Query block: Notebook entry, human cloned 5-HT6 receptors (Homo sapiens, UniProt P50406) assay: Ki of O=S(=O)(c1cccc2ccccc12)c1n[nH]c2ccc(OCCN3CCCC3)cc12 [Example 37] = ?
Result block: 0.01 to 10 nM

Query block: Notebook entry, human cloned 5-HT6 receptors (Homo sapiens, UniProt P50406) assay: Ki of CN(C)CCNC(=O)c1ccc2[nH]nc(S(=O)(=O)c3cccc4ccccc34)c2c1 [Example 151] = ?
Result block: 0.01 to 10 nM

Query block: Notebook entry, human cloned 5-HT6 receptors (Homo sapiens, UniProt P50406) assay: Ki of CN(C)CCOc1cccc2c(S(=O)(=O)c3cccc4ccccc34)n[nH]c12 [Example 78] = ?
Result block: 0.01 to 10 nM

Query block: Notebook entry, human cloned 5-HT6 receptors (Homo sapiens, UniProt P50406) assay: Ki of CCNCCOc1ccc2c(c1)c(S(=O)(=O)c1cccc3ccccc13)nn2Cc1cccc(Cl)c1 [Example 60] = ?
Result block: 11 to 25 nM

Query block: Notebook entry, human cloned 5-HT6 receptors (Homo sapiens, UniProt P50406) assay: Ki of CC(C)NCCOc1ccc2[nH]nc(S(=O)(=O)c3ccccc3)c2c1 [Example 6] = ?
Result block: 11 to 25 nM

Query block: Notebook entry, human cloned 5-HT6 receptors (Homo sapiens, UniProt P50406) assay: Ki of NCCCCc1ccc2[nH]nc(S(=O)(=O)c3cccc4ccccc34)c2c1 [Example 189, hydrochloride] = ?
Result block: 0.01 to 10 nM

----------
I'd be grateful if you could share measured Ki for these entries.

Query block: Notebook entry, human cloned 5-HT6 receptors (Homo sapiens) assay: Ki of O=S(=O)(c1cccc2ccccc12)c1n[nH]c2ccc(OCCCN3CCCC3)cc12 [Example 23] = ?
Result block: 0.01 to 10 nM

Query block: Notebook entry, human cloned 5-HT6 receptors (Homo sapiens) assay: Ki of Cn1nc(S(=O)(=O)c2cccc3ccccc23)c2cccc(OCCN3CCCCC3)c21 [Example 99] = ?
Result block: 0.01 to 10 nM

Query block: Notebook entry, human cloned 5-HT6 receptors (Homo sapiens) assay: Ki of O=S(=O)(c1ccccc1)c1nn(Cc2cccc(Cl)c2)c2c(OCCN3CCCC3)cccc12 [Example 86] = ?
Result block: 26 to 35 nM

----------
Where a name gives a salt, the structure may show the parent alone.
I'd be grateful if you could share measured melting point for these entries.

Query block: # query: melting point of entry O=S(=O)(c1ccccc1)c1n[nH]c2ccc(OCCNC3CCCC3)cc12 (as salt: hydrochloride)
Result block: 255 to 258 °C (dec.)

Query block: # query: melting point of entry CC(C)NCCCc1ccc2[nH]nc(S(=O)(=O)c3cccc4ccccc34)c2c1
Result block: 160 to 163 °C

Query block: # query: melting point of entry CC(C)NCCOc1ccc2c(c1)c(S(=O)(=O)c1cccc3ccccc13)nn2Cc1cccc(Cl)c1 (as salt: hydrochloride)
Result block: 206 to 208 °C

Query block: # query: melting point of entry CNCCCc1ccc2[nH]nc(S(=O)(=O)c3cccc4ccccc34)c2c1
Result block: 155 to 160 °C

Query block: # query: melting point of entry CN(C)CCc1cccc2c(S(=O)(=O)c3ccccc3)n[nH]c12 (as salt: hydrochloride)
Result block: 76 to 80 °C

Query block: # query: melting point of entry O=S(=O)(c1cccc2ccccc12)c1n[nH]c2ccc(CN[C@H]3CCNC3)cc12 (as salt: hydrochloride)
Result block: > 200 °C

Query block: # query: melting point of entry O=S(=O)(c1cccc2ccccc12)c1n[nH]c2ccc(CCCN3CCCC3)cc12
Result block: 135 to 138 °C

Query block: # query: melting point of entry CCNCCOc1ccc2[nH]nc(S(=O)(=O)c3ccccc3)c2c1 (as salt: hydrochloride)
Result block: 248 to 250 °C (dec.)

Query block: # query: melting point of entry CC(C)NCCCc1ccc2[nH]nc(S(=O)(=O)c3ccccc3)c2c1 (as salt: trifluoroacetate)
Result block: 169 to 171 °C

Query block: # query: melting point of entry CCCCNCCOc1ccc2[nH]nc(S(=O)(=O)c3ccccc3)c2c1 (as salt: hydrochloride)
Result block: 271 to 273 °C (dec.)

Query block: # query: melting point of entry CNCCOc1ccc2c(c1)c(S(=O)(=O)c1cccc3ccccc13)nn2C (as salt: hydrochloride)
Result block: 272 to 274 °C (dec.)

Query block: # query: melting point of entry NCCNCc1ccc2[nH]nc(S(=O)(=O)c3cccc4ccccc34)c2c1 (as salt: hydrochloride)
Result block: > 200 °C

Query block: # query: melting point of entry CC(C)NCCOc1ccc2[nH]nc(S(=O)(=O)c3ccccc3)c2c1 (as salt: hydrochloride)
Result block: 275 to 277 °C (dec.)

Query block: # query: melting point of entry CC1CN(Cc2ccc3[nH]nc(S(=O)(=O)c4cccc5ccccc45)c3c2)CC(C)N1 (stereo not shown) (as salt: HCl)
Result block: > 200 °C

Query block: # query: melting point of entry CCN(C)CCCCc1ccc2[nH]nc(S(=O)(=O)c3cccc4ccccc34)c2c1
Result block: 195 to 198 °C

Query block: # query: melting point of entry CCNCCOc1ccc2c(c1)c(S(=O)(=O)c1cccc3ccccc13)nn2C (as salt: hydrochloride)
Result block: 276 to 277 °C (dec.)

Query block: # query: melting point of entry O=S(=O)(c1cccc2ccccc12)c1n[nH]c2ccc(CCCCN3CCCC3)cc12
Result block: 238 to 240 °C

Query block: # query: melting point of entry CNCCc1ccc2[nH]nc(S(=O)(=O)c3ccccc3)c2c1
Result block: 186 to 188 °C

Query block: # query: melting point of entry CCN(C)CCCc1ccc2[nH]nc(S(=O)(=O)c3cccc4ccccc34)c2c1
Result block: 205 to 207 °C

Query block: # query: melting point of entry CN(C)CCOCc1ccc2[nH]nc(S(=O)(=O)c3cccc4ccccc34)c2c1 (as salt: HCl)
Result block: > 200 °C

Query block: # query: melting point of entry NCCCCc1ccc2[nH]nc(S(=O)(=O)c3ccccc3)c2c1 (as salt: hydrochloride)
Result block: 120 to 125 °C

Query block: # query: melting point of entry CCNCCCCc1ccc2[nH]nc(S(=O)(=O)c3cccc4ccccc34)c2c1
Result block: 140 to 145 °C

Origin of measurements: patent US7723329B2
